Assay: Phase 1b study in female adults with cystitis, plasma PK
Assay type: in vivo, human
Details: female, human, plasma, po, 450 mg, Day 5; 450 mg po (n = 10); median; read-out: tmax
READOUT_LABEL: Tmax (h)

| RECORD_SMILES | OBS_VALUE |
| --- | --- |
| CN(C)c1cc(CNCC(C)(C)C)c(O)c2c1C[C@H]1C[C@H]3[C@H](N(C)C)C(O)=C(C(N)=O)C(=O)[C@@]3(O)C(O)=C1C2=O | 3 |

* * *

System: K. pneumoniae ESBL+
Experiment: In vitro MIC, 2010 surveillance isolates
Type: cell-based, Klebsiella pneumoniae
Conditions: N America; CLSI breakpoints

| COMPOUND | % R (resistance) [%] |
| --- | --- |
| CN(C)c1cc(NC(=O)CNC(C)(C)C)c(O)c2c1C[C@H]1C[C@H]3[C@H](N(C)C)C(O)=C(C(N)=O)C(=O)[C@@]3(O)C(O)=C1C2=O [Tigecycline] | 0 |
| C[C@H]1COc2c(N3CCN(C)CC3)c(F)cc3c(=O)c(C(=O)O)cn1c23 [Levofloxacin] | 75 |
| CO/N=C(\C(=O)N[C@@H]1C(=O)N2C(C(=O)[O-])=C(C[N+]3(C)CCCC3)CS[C@H]12)c1csc(N)n1 [Cefepime] | 43.5 |

* * *

Assay: Phase 1b study in female adults with cystitis, urine PK
Assay type: in vivo, human
Conditions: female, human, urine and plasma, oral, 300 mg, Day 5, IV_PO300; read-out: Renal CL, Mean (converted)

| COMPOUND | clearance / mL/min |
| --- | --- |
| CN(C)c1cc(CNCC(C)(C)C)c(O)c2c1C[C@H]1C[C@H]3[C@H](N(C)C)C(O)=C(C(N)=O)C(=O)[C@@]3(O)C(O)=C1C2=O [Compound 1] | 94.6 |

* * *

Assay: Phase 1b study in female adults with cystitis, plasma PK
Format: in vivo, human
Settings: female, human, plasma, oral, 300 mg, plasma, Day 5, IV_PO300; read-out: T½, Median (converted)

| RECORD_SMILES | half-life |
| --- | --- |
| CN(C)c1cc(CNCC(C)(C)C)c(O)c2c1C[C@H]1C[C@H]3[C@H](N(C)C)C(O)=C(C(N)=O)C(=O)[C@@]3(O)C(O)=C1C2=O | 12.1 h |

* * *

Test: Phase 1b study in female adults with cystitis, plasma PK
Type: in vivo, human
Details: female, human, plasma, intravenous, 200 mg, Day 1; 200 mg IV, 300 mg po (n = 11); plasma; mean; read-out: Cmax
READOUT_LABEL: Cmax (ng/mL)

| COMPOUND | OBS_VALUE |
| --- | --- |
| CN(C)c1cc(CNCC(C)(C)C)c(O)c2c1C[C@H]1C[C@H]3[C@H](N(C)C)C(O)=C(C(N)=O)C(=O)[C@@]3(O)C(O)=C1C2=O [Compound 1] | 2160 |

* * *

Experiment: Phase 1b study in female adults with cystitis, plasma PK
Format: in vivo, human
Conditions: female, human, plasma, oral, 300 mg, plasma, Day 5, IV_PO300; read-out: AUC(0-24 hrs), Mean

| COMPOUND | READOUT_UNITS | AUC(0-t) |
| --- | --- | --- |
| CN(C)c1cc(CNCC(C)(C)C)c(O)c2c1C[C@H]1C[C@H]3[C@H](N(C)C)C(O)=C(C(N)=O)C(=O)[C@@]3(O)C(O)=C1C2=O [Compound 1] | µg·h/mL | 13.2 |

* * *

Reported MIC90 values for the following compounds.
Tested on: E. faecalis VS
Experiment: In vitro MIC, 2010 surveillance isolates
Type: cell-based
Settings: Europe; N=669

| RECORD_SMILES | STUDY_TARGET | PREFIX_OPERATOR | MIC90 (µg/mL) |
| --- | --- | --- | --- |
| CO/N=C(\C(=O)N[C@@H]1C(=O)N2C(C(=O)O)=C(CSc3nc(=O)c(=O)[nH]n3C)CS[C@H]12)c1csc(N)n1 | E. faecalis VS | > | 8 |
| CN(C)c1cc(CNCC(C)(C)C)c(O)c2c1C[C@H]1C[C@H]3[C@H](N(C)C)C(O)=C(C(N)=O)C(=O)[C@@]3(O)C(O)=C1C2=O | E. faecalis VS | = | 0.25 |
| C[C@H]1c2cccc(O)c2C(=O)C2=C(O)[C@]3(O)C(=O)C(C(N)=O)=C(O)[C@@H](N(C)C)[C@@H]3[C@@H](O)[C@@H]21 | E. faecalis VS | > | 8 |
| CN[C@H](CC(C)C)C(=O)N[C@H]1C(=O)N[C@@H](CC(N)=O)C(=O)N[C@H]2C(=O)N[C@H]3C(=O)N[C@H](C(=O)N[C@H](C(=O)O)c4cc(O)cc(O)c4-c4cc3ccc4O)[C@H](O)c3ccc(c(Cl)c3)Oc3cc2cc(c3O[C@@H]2O[C@H](CO)[C@@H](O)[C@H](O)[C@H]2O[C@H]2C[C@](C)(N)[C@H](O)[C@H](C)O2)Oc2ccc(cc2Cl)[C@H]1O | E. faecalis VS | = | 2 |
| C[C@H]1COc2c(N3CCN(C)CC3)c(F)cc3c(=O)c(C(=O)O)cn1c23 | E. faecalis VS | > | 4 |

* * *

Test: 14C-labeled Compound 1 single oral 300 mg dose, plasma and urine
Format: in vivo, human
Conditions: human, in vivo, po, 300 mg, plasma AUCinf
Procedure: ^14C-labeled Compound 1 was administered as a single oral 300 mg dose to healthy human subjects. […] While the driver of efficacy for Compound 1 in UTI is not completely known, and while not wishing to be bound by any particular theory, Applicant believes that maximizing time of urine concentration above pathogen MIC (ideally, throughout the dosing interval) is desirable. This belief is partly based on a clinical study that evaluated the disposition of a single 300 mg oral dose of ^14C-Compound 1. […]

| RECORD_SMILES | AUC(0-inf) [µg·h/mL] |
| --- | --- |
| CN(C)c1cc(CNCC(C)(C)C)c(O)c2c1C[C@H]1C[C@H]3[C@H](N(C)C)C(O)=C(C(N)=O)C(=O)[C@@]3(O)C(O)=C1C2=O | 9.42 |

* * *

Test: Phase 1b study in female adults with cystitis, plasma PK
Assay type: in vivo, human
Settings: female, human, plasma, oral, 300 mg, plasma, Day 1, PO300; read-out: Cmax, Median

| RECORD_SMILES | READOUT_UNITS | Cmax |
| --- | --- | --- |
| CN(C)c1cc(CNCC(C)(C)C)c(O)c2c1C[C@H]1C[C@H]3[C@H](N(C)C)C(O)=C(C(N)=O)C(=O)[C@@]3(O)C(O)=C1C2=O | ng/mL | 916 |

* * *

Assay: Phase 1b study in female adults with cystitis, plasma PK
Type: in vivo, human
Settings: female, human, plasma, oral, 300 mg, plasma, Day 5, IV_PO300; read-out: Tmax, Geo. Mean

| RECORD_SMILES | Tmax |
| --- | --- |
| CN(C)c1cc(CNCC(C)(C)C)c(O)c2c1C[C@H]1C[C@H]3[C@H](N(C)C)C(O)=C(C(N)=O)C(=O)[C@@]3(O)C(O)=C1C2=O | 2.83 h |

* * *

System: K. pneumoniae ESBL−
Assay: In vitro MIC, 2010 surveillance isolates
Assay type: cell-based, Klebsiella pneumoniae
Conditions: N America; N=671
Listed molecules paired with reported MIC90

| MOLECULE | READOUT_UNITS | PREFIX_OPERATOR | MIC90 |
| --- | --- | --- | --- |
| CO/N=C(\C(=O)N[C@@H]1C(=O)N2C(C(=O)O)=C(CSc3nc(=O)c(=O)[nH]n3C)CS[C@H]12)c1csc(N)n1 | µg/mL | = | 0.12 |
| CN(C)c1cc(NC(=O)CNC(C)(C)C)c(O)c2c1C[C@H]1C[C@H]3[C@H](N(C)C)C(O)=C(C(N)=O)C(=O)[C@@]3(O)C(O)=C1C2=O | µg/mL | = | 0.5 |
| C[C@H]1c2cccc(O)c2C(=O)C2=C(O)[C@]3(O)C(=O)C(C(N)=O)=C(O)[C@@H](N(C)C)[C@@H]3[C@@H](O)[C@@H]21 | µg/mL | > | 8 |
| C[C@H]1COc2c(N3CCN(C)CC3)c(F)cc3c(=O)c(C(=O)O)cn1c23 | µg/mL | ≤ | 0.5 |
| NCC[C@H](O)C(=O)N[C@@H]1C[C@H](N)[C@@H](O[C@H]2O[C@H](CN)[C@@H](O)[C@H](O)[C@H]2O)[C@H](O)[C@H]1O[C@H]1O[C@H](CO)[C@@H](O)[C@H](N)[C@H]1O | µg/mL | = | 2 |
| CN(C)c1cc(CNCC(C)(C)C)c(O)c2c1C[C@H]1C[C@H]3[C@H](N(C)C)C(O)=C(C(N)=O)C(=O)[C@@]3(O)C(O)=C1C2=O | µg/mL | = | 4 |
| C[C@@H](O)[C@H]1C(=O)N2C(C(=O)O)=C(SCCN=CN)C[C@H]12 | µg/mL | = | 0.25 |
| CO/N=C(\C(=O)N[C@@H]1C(=O)N2C(C(=O)[O-])=C(C[N+]3(C)CCCC3)CS[C@H]12)c1csc(N)n1 [Cefepime] | µg/mL | ≤ | 0.12 |

FYI, the data here is from patent US10238670B2.
